TARGET: CCDC6-RET fusion (Homo sapiens, UniProt P07949+Q16204+Q96SW2)
Construct: CCDC6 (N-terminal fusion partner from the natural gene rearrangement, Q16204); endogenous in cells; host or cells: TPC-1 (parental) papillary thyroid carcinoma cells
Sequence (Q16204+P07949 fused): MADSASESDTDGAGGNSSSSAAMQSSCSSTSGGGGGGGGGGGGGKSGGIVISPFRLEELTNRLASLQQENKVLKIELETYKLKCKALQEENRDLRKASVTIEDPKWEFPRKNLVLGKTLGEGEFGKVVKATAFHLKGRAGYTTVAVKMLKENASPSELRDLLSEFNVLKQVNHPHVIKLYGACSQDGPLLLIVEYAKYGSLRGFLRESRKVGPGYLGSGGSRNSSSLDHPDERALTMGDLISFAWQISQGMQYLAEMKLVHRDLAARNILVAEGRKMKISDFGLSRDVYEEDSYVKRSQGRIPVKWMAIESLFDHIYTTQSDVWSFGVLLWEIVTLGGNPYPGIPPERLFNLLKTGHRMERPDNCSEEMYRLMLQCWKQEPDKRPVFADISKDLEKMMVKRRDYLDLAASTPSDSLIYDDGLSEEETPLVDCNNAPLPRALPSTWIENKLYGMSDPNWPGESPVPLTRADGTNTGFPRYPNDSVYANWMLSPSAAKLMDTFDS
Sequence (Q96SW2 whole entry, the tested form may be a part): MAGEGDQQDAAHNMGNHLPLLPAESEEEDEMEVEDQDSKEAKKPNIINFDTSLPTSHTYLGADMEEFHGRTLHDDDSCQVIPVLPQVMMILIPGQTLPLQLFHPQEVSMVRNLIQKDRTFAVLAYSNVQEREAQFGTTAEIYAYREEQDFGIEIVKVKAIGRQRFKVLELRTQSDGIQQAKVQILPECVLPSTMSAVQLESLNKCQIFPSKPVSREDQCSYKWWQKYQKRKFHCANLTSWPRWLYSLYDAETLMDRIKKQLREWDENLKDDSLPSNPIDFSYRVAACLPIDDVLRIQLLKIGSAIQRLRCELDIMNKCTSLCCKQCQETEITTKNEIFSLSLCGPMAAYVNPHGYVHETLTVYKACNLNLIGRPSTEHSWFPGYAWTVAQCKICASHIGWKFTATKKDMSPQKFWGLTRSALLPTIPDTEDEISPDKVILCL
ASSAY METHOD TEXT: Cellular RET degradation assay (AlphaLISA Surefire Ultra, TPC-1 cells)
Type: cell-based
RUN CONDITIONS: half-maximal degradation concentration (DC50); parental TPC-1/CCDC6-RET cell line; 24 hrs compound treatment; AlphaLISA luminescence; read-out: Cell Density TPC-1/CCDC6-RET IC50
Under this convention, class 1 denotes DC50 strictly below 10 nM and class 0 denotes DC50 at or above 10 nM.

MOLECULE	DISCRETE LABEL
Nc1ncnc2c1c(-c1noc(C3CC3)c1-c1ccccn1)nn2[C@H]1C[C@H](C(=O)NCCCCNc2ccc(C3CCC(=O)NC3=O)cc2)C1 (stereo partly shown) [Example A11]	class 0

Please let me know if CC(C)n1nc(-c2noc(C3CC3)c2-c2cn(C3CCN(C(=O)CCCCCCN4CCN(c5ccc6c(c5)CN(C5CCC(=O)NC5=O)C6=O)CC4)CC3)cn2)c2c(N)ncnc21 (stereo not shown) [Example A12] shows DC50 below 10 nM.
class 1

Please answer likewise for Nc1ncnc2c1c(-c1noc(C3CC3)c1-c1ccccn1)nn2[C@H]1C[C@H](C(=O)NCCCCN2CCC(c3ccc4c(c3)CN(C3CCC(=O)NC3=O)C4=O)CC2)C1 (stereo partly shown) [Example A4]
class 1

Same question, COC1(C(=O)N[C@@H](CCCNC(=O)CCCCCCCCNc2cccc(C3CCC(=O)NC3=O)c2)c2ccc(-n3cc(F)cn3)nc2)CCN(c2nc(C)cc(Nc3cc(C)[nH]n3)n2)CC1 (stereo partly shown) [Example A29] this time
class 1

Can you check Nc1ncnc2c1c(-c1noc(C3CC3)c1-c1ccccn1)nn2[C@H]1C[C@H](C(=O)NCCCCN2CCN(c3ccc4c(c3)CN(C3CCC(=O)NC3=O)C4=O)CC2)C1 (stereo partly shown) [Example A2] next?
class 1

Now give it for CC(C)n1nc(-c2noc(C3CC3)c2-c2cn(C3CCN(C(=O)CCCCN4CCC(c5ccc6c(c5)C(=O)N(C5CCC(=O)NC5=O)C6)CC4)CC3)cn2)c2c(N)ncnc21 (stereo not shown) [Example A17] too.
class 0

Data origin, for the record: patent US20260232673A1
